# test.protocol: Pharmacokinetics after repeated oral administration of 250 μg/kg and 35 μg/kg of fluralaner in dogs after feeding
# Assay type: in vivo, beagle dogs
# assay.setup: beagle, dog, plasma, po, 72 h; oral 250/35/600 μg/kg regimen, dogs, n=6; read-out: fluralaner concentration levels, Mean
quantity.kind: concentration at 72 h (ng/mL)
The figure you give is taken to be in ng/mL; do not add the unit.

In: Consider the compound Cc1cc(C2=NOC(c3cc(Cl)cc(Cl)c3)(C(F)(F)F)C2)ccc1C(=O)NCC(=O)NCC(F)(F)F (stereo not shown) [fluralaner, Fluralaner] and give its measured concentration at 72 h.
Out: 388

---

# test.protocol: Pharmacokinetics after repeated oral administration of 250 μg/kg and 35 μg/kg of fluralaner in dogs after feeding
# Type: in vivo, beagle dogs
# assay.setup: beagle, dog, plasma, po, 192 h; oral 250 μg/kg Days 0-3, 35 μg/kg Days 4-9, 600 μg/kg Day 11, dogs; read-out: fluralaner concentration levels, individual animal
quantity.kind: concentration at 192 h (µg/mL)
The figure you give is taken to be in µg/mL; do not add the unit.

In: Consider the compound Cc1cc(C2=NOC(c3cc(Cl)cc(Cl)c3)(C(F)(F)F)C2)ccc1C(=O)NCC(=O)NCC(F)(F)F (stereo not shown) and give its measured concentration at 192 h.
Out: 0.542

---

# test.protocol: Pharmacokinetics after repeated oral administration of 35 μg/kg of fluralaner in dogs after feeding
# Type: in vivo, beagle dogs
# assay.setup: beagle, dog, plasma, po, 35 ug/kg, oral 35 μg/kg Days 0-3, dogs, n=6; read-out: Cmax, Mean
quantity.kind: Cmax (ng/mL)
The figure you give is taken to be in ng/mL; do not add the unit.

In: Consider the molecule Cc1cc(C2=NOC(c3cc(Cl)cc(Cl)c3)(C(F)(F)F)C2)ccc1C(=O)NCC(=O)NCC(F)(F)F (stereo not shown) [fluralaner, Fluralaner] and give its measured Cmax.
Out: 84.4

---

# test.protocol: Pharmacokinetics after repeated oral administration of 35 μg/kg of fluralaner in dogs after feeding
# Format: in vivo, beagle dogs
# assay.setup: beagle, dog, plasma, po, 35 μg/kg, 360 h; oral 35 μg/kg Days 0-3, dogs; read-out: fluralaner concentration levels, individual animal
quantity.kind: concentration at 360 h (ng/mL)
The figure you give is taken to be in ng/mL; do not add the unit.

In: Consider the compound Cc1cc(C2=NOC(c3cc(Cl)cc(Cl)c3)(C(F)(F)F)C2)ccc1C(=O)NCC(=O)NCC(F)(F)F (stereo not shown) and give its measured concentration at 360 h.
Out: 42.8

---

# test.protocol: Pharmacokinetics after repeated oral administration of 35 μg/kg of fluralaner in dogs after feeding
# Format: in vivo, beagle dogs
# assay.setup: beagle, dog, plasma, po, 35 ug/kg, oral 35 μg/kg Days 0-3, dogs; read-out: terminal half-life, range
quantity.kind: half-life

In: Consider the compound Cc1cc(C2=NOC(c3cc(Cl)cc(Cl)c3)(C(F)(F)F)C2)ccc1C(=O)NCC(=O)NCC(F)(F)F (stereo not shown) and give its measured half-life.
Out: 155 to 261 h

---

# test.protocol: Pharmacokinetics after repeated oral administration of 250 μg/kg and 35 μg/kg of fluralaner in dogs after feeding
# Format: in vivo, beagle dogs
# assay.setup: beagle, dog, plasma, po, 24 h; oral 250/35/600 μg/kg regimen, dogs, n=6; read-out: fluralaner concentration levels, Mean
quantity.kind: concentration at 24 h (ng/mL)
The figure you give is taken to be in ng/mL; do not add the unit.

In: Consider the compound Cc1cc(C2=NOC(c3cc(Cl)cc(Cl)c3)(C(F)(F)F)C2)ccc1C(=O)NCC(=O)NCC(F)(F)F (stereo not shown) and give its measured concentration at 24 h.
Out: 146

---

# test.protocol: Pharmacokinetics after repeated oral administration of 35 μg/kg of fluralaner in dogs after feeding
# Type: in vivo, beagle dogs
# assay.setup: beagle, dog, plasma, po, 35 ug/kg, oral 35 μg/kg Days 0-3, dogs; read-out: AUC 0-t, individual animal
quantity.kind: AUC(0-t) (ng·h/mL)
The figure you give is taken to be in ng·h/mL; do not add the unit.

In: Consider the molecule Cc1cc(C2=NOC(c3cc(Cl)cc(Cl)c3)(C(F)(F)F)C2)ccc1C(=O)NCC(=O)NCC(F)(F)F (stereo not shown) and give its measured AUC(0-t).
Out: 25000

---

# test.protocol: Pharmacokinetics after repeated oral administration of 250 μg/kg and 35 μg/kg of fluralaner in dogs after feeding
# Format: in vivo, beagle dogs
# assay.setup: beagle, dog, plasma, po, 120 h; oral 250/35/600 μg/kg regimen, dogs, n=6; read-out: fluralaner concentration levels, Median
quantity.kind: concentration at 120 h (ng/mL)
The figure you give is taken to be in ng/mL; do not add the unit.

In: Consider the compound Cc1cc(C2=NOC(c3cc(Cl)cc(Cl)c3)(C(F)(F)F)C2)ccc1C(=O)NCC(=O)NCC(F)(F)F (stereo not shown) and give its measured concentration at 120 h.
Out: 515

---

# test.protocol: Pharmacokinetics after repeated oral administration of 35 μg/kg of fluralaner in dogs after feeding
# Type: in vivo, beagle dogs
# assay.setup: beagle, dog, plasma, po, 35 μg/kg, 72 h; oral 35 μg/kg Days 0-3, dogs; read-out: fluralaner concentration levels, individual animal
quantity.kind: concentration at 72 h (ng/mL)
The figure you give is taken to be in ng/mL; do not add the unit.

In: Consider the compound Cc1cc(C2=NOC(c3cc(Cl)cc(Cl)c3)(C(F)(F)F)C2)ccc1C(=O)NCC(=O)NCC(F)(F)F (stereo not shown) [fluralaner, Fluralaner] and give its measured concentration at 72 h.
Out: 44.6

---

# test.protocol: Pharmacokinetics after repeated oral administration of 35 μg/kg of fluralaner in dogs after feeding
# Format: in vivo, beagle dogs
# assay.setup: beagle, dog, plasma, po, 35 μg/kg, 240 h; oral 35 μg/kg Days 0-3, dogs, n=6; read-out: fluralaner concentration levels, Maximum
quantity.kind: concentration at 240 h (ng/mL)
The figure you give is taken to be in ng/mL; do not add the unit.

In: Consider the compound Cc1cc(C2=NOC(c3cc(Cl)cc(Cl)c3)(C(F)(F)F)C2)ccc1C(=O)NCC(=O)NCC(F)(F)F (stereo not shown) [fluralaner, Fluralaner] and give its measured concentration at 240 h.
Out: 54.9

---

# test.protocol: Pharmacokinetics after repeated oral administration of 35 μg/kg of fluralaner in dogs after feeding
# Assay type: in vivo, beagle dogs
# assay.setup: beagle, dog, plasma, po, 35 μg/kg, 24 h; oral 35 μg/kg Days 0-3, dogs, n=6; read-out: fluralaner concentration levels, Maximum
quantity.kind: concentration at 24 h (ng/mL)
The figure you give is taken to be in ng/mL; do not add the unit.

In: Consider the molecule Cc1cc(C2=NOC(c3cc(Cl)cc(Cl)c3)(C(F)(F)F)C2)ccc1C(=O)NCC(=O)NCC(F)(F)F (stereo not shown) and give its measured concentration at 24 h.
Out: 19

---

# test.protocol: Pharmacokinetics after repeated oral administration of 35 μg/kg of fluralaner in dogs after feeding
# Type: in vivo, beagle dogs
# assay.setup: beagle, dog, plasma, po, 35 μg/kg, 672 h; oral 35 μg/kg Days 0-3, dogs, n=6; read-out: fluralaner concentration levels, Minimum
quantity.kind: concentration at 672 h (ng/mL)
The figure you give is taken to be in ng/mL; do not add the unit.

In: Consider the compound Cc1cc(C2=NOC(c3cc(Cl)cc(Cl)c3)(C(F)(F)F)C2)ccc1C(=O)NCC(=O)NCC(F)(F)F (stereo not shown) and give its measured concentration at 672 h.
Out: 9.1

---

# test.protocol: Pharmacokinetics after repeated oral administration of 250 μg/kg and 35 μg/kg of fluralaner in dogs after feeding
# Format: in vivo, beagle dogs
# assay.setup: beagle, dog, plasma, po, 240 h; oral 250/35/600 μg/kg regimen, dogs, n=6; read-out: fluralaner concentration levels, Minimum
quantity.kind: concentration at 240 h (ng/mL)
The figure you give is taken to be in ng/mL; do not add the unit.

In: Consider the compound Cc1cc(C2=NOC(c3cc(Cl)cc(Cl)c3)(C(F)(F)F)C2)ccc1C(=O)NCC(=O)NCC(F)(F)F (stereo not shown) and give its measured concentration at 240 h.
Out: 368

---

# test.protocol: Pharmacokinetics after repeated oral administration of 35 μg/kg of fluralaner in dogs after feeding
# Type: in vivo, beagle dogs
# assay.setup: beagle, dog, plasma, po, 35 μg/kg, 576 h; oral 35 μg/kg Days 0-3, dogs, n=6; read-out: fluralaner concentration levels, Mean
quantity.kind: concentration at 576 h (ng/mL)
The figure you give is taken to be in ng/mL; do not add the unit.

In: Consider the molecule Cc1cc(C2=NOC(c3cc(Cl)cc(Cl)c3)(C(F)(F)F)C2)ccc1C(=O)NCC(=O)NCC(F)(F)F (stereo not shown) [fluralaner, Fluralaner] and give its measured concentration at 576 h.
Out: 17.4
